- assay-summary: NCI Yeast Anticancer Drug Screen. Data for the bub3 strain (AID 167)
- settings: S. cerevisiae bub3 mutant strain, stronger effect = higher value; at 50.0 µM unless noted
About 79,000 compounds went through this panel and 15% of them were active in at least one assay; those are over-represented in the sample as a whole. Active and inactive are the calls of the source. Rule as the data show it: active = growth inhibition above about 70%; inactive = the rest.
recorded-metric: growth inhibition

{"molecule": "S=c1[nH]nc2scnn12", "growth inhibition": "7.4% (inactive)"}
{"molecule": "Cc1c(Cl)cc(Cl)c2c1C(=O)CC(C)O2 (stereo not given)", "growth inhibition": "-14.5% (inactive)"}
{"molecule": "Cc1ccccc1OC(=O)Oc1ccccc1C", "growth inhibition": "21.1% (inactive)"}
{"molecule": "O=C(O)c1nc2cn1/C=C\\C=NCC1=CN3C=CC=NC3(C(=O)O)N1C2 (stereo not given)", "growth inhibition": "1.05% (inactive)"}
{"molecule": "COc1ccc2c(O)c(Oc3ccccc3)c(=O)oc2c1", "growth inhibition": "15.3% (inactive)"}
{"molecule": "O=C(O)c1ccc(Cl)o1", "growth inhibition": "10.1% (inactive)"}
{"molecule": "CCN(CC)c1ccc2cc(C(=O)NCc3ccccc3)c(=N)oc2c1", "growth inhibition": "-38% (inactive)"}
{"molecule": "Clc1ccc(-c2cn3c(nc4ccccc43)c(-c3ccccc3)n2)cc1", "growth inhibition": "-22.5% (inactive)"}

Query string: Query: growth inhibition; subject: CCN(C(=O)c1ccc(C(=O)N(CC)c2cccc(C)c2)cc1)c1cccc(C)c1
Result string: 6.15% (inactive)

Query string: Entry to check: O=S(=O)(Cc1nc2ccccc2[nH]1)Cc1nc2ccccc2[nH]1
Result string: 4.95% (inactive)

Query string: Entry to check: Cc1ncc(CO)c(CO)c1OCC(O)CN1CCN(c2ccc(F)cc2)CC1 (stereo not given)
Result string: -6.9% (inactive)

Query string: Entry to check: CCOC(=O)c1cc2ccccc2cc1N=N
Result string: 23.2% (inactive)

Query string: Entry to check: CCCCN(CCCC)C(=O)C(=O)C(C(=O)c1ccc(OC)cc1)c1ccc(OC)cc1 (stereo not given)
Result string: 14.1% (inactive)

Reference for the values: PubChem BioAssay (NCI)
